Listing: pIC50 of selected compounds
- measuredOn: KRAS G12V (Homo sapiens (Human), UniProt P01116+P62937, G12V)
- Sequence (P01116-2 other isoform, or with tags, fused parts or gaps G12V): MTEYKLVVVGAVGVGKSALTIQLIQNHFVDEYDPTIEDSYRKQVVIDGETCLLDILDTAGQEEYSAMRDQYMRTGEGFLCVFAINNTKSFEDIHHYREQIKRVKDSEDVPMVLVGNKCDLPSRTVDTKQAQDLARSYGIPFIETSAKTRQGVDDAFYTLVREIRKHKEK
- Sequence (P62937 whole entry): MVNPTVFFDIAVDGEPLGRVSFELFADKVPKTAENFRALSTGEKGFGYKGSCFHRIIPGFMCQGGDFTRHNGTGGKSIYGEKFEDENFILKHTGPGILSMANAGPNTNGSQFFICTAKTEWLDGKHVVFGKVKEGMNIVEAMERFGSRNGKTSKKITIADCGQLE
- testSummary: Ras-Raf (BRAF RBD) disruption / FRET / MOA assay, KRAS G12V
- Assay type: biochemical
- appliedConditions: read-out: IC50* KRAS G12V FRET data
pIC50: −log10 of the molar value.

INSERT INTO results (compound, measuredon, measurement) VALUES
  ('CCn1c(-c2ccccc2CN(C)C)c2c3cc(ccc31)-c1cc(O)cc(c1)C[C@H](NC(=O)[C@H](C(C)C)N(C)C(=O)c1ncc(NC(=O)/C=C/CN(C)C)s1)C(=O)N1CCC[C@H](N1)C(=O)OCC(C)(C)C2 (atropisomer, axis not shown)', 'KRAS G12V (Homo sapiens (Human), UniProt P01116+P62937, G12V)', '< 5.00'),
  ('CCn1c(-c2cccnc2[C@H](C)OC)c2c3cc(ccc31)N1CCC[C@@H](C[C@H](NC(=O)[C@H](C(C)C)N(C)C(=O)C3(F)CCN(C(=O)C#CC(C)(C)N(C)C)CC3)C(=O)N3CCC[C@H](N3)C(=O)OCC(C)(C)C2)C1 (atropisomer, axis not shown) [Example A615]', 'KRAS G12V (Homo sapiens (Human), UniProt P01116+P62937, G12V)', '< 5.00'),
  ('C=CC(=O)N1CC[C@H](C(=O)N(C)[C@H](C(=O)N[C@H]2Cc3cccc(c3)-c3ccc4c(c3)c(c(-c3cc(C5=CCN(C)CC5)cnc3[C@H](C)OC)n4CC)CC(C)(C)COC(=O)[C@@H]3CCCN(N3)C2=O)C(C)C)C1 (atropisomer, axis not shown) [Example A514]', 'KRAS G12V (Homo sapiens (Human), UniProt P01116+P62937, G12V)', '< 5.00'),
  ('CC#CC(=O)N1CC[C@@H](C(=O)N(C)[C@H](C(=O)N[C@H]2Cc3cccc(c3)-c3ccc4c(c3)c(c(-c3cccnc3[C@H](C)OC)n4CC)CC(C)(C)COC(=O)[C@@H]3CCCN(N3)C2=O)C(C)C)C1 (atropisomer, axis not shown)', 'KRAS G12V (Homo sapiens (Human), UniProt P01116+P62937, G12V)', '5.00 to 6.00'),
  ('CCn1c(-c2cccnc2[C@H](C)OC)c2c3cc(ccc31)N1CCO[C@@H](C[C@H](NC(=O)[C@H](C(C)C)N3CC[C@@]4(CCN(C(=O)C#CC(C)(C)N(C)C)C4)C3=O)C(=O)N3CCC[C@H](N3)C(=O)OCC(C)(C)C2)C1 (atropisomer, axis not shown)', 'KRAS G12V (Homo sapiens (Human), UniProt P01116+P62937, G12V)', '< 5.00'),
  ('C=CC(=O)N1CC[C@H](C(=O)N(C)[C@H](C(=O)N[C@H]2Cc3cccc(c3)-c3ccc4c(c3)c(c(-c3cccnc3[C@H](C)OC)n4CC)CC(C)(C)COC(=O)[C@@H]3CCCN(N3)C2=O)C(C)(C)F)C1 (atropisomer, axis not shown)', 'KRAS G12V (Homo sapiens (Human), UniProt P01116+P62937, G12V)', '5.00 to 6.00');

[in] Given the compound C=CC(=O)Nc1cnc(OC[C@H](C(=O)N[C@H]2Cc3cccc(c3)-c3ccc4c(c3)c(c(-c3cccnc3[C@H](C)OC)n4CC)CC(C)(C)COC(=O)[C@@H]3CCCN(N3)C2=O)C(C)C)n1C (atropisomer, axis not shown) , what is its reported pIC50?
[out] 5.00 to 6.00

[in] Given the compound CCn1c(-c2cncnc2)c2c3cc(ccc31)-c1cc(O)cc(c1)C[C@H](NC(=O)[C@H](C(C)C)N(C)C(=O)[C@H]1CCN(C(=O)C#CCN3CCOCC3)C1)C(=O)N1CCC[C@H](N1)C(=O)OCC(C)(C)C2 , what is its reported pIC50?
[out] 5.00 to 6.00

[in] Given the compound C=CC(=O)N1CC[C@H](C(=O)N(C)[C@H](C(=O)N[C@H]2Cc3cc(O)cc(c3)-c3ccc4c(c3)c(c(-c3cncnc3)n4CC)CC(C)(C)COC(=O)[C@@H]3CCCN(N3)C2=O)C(C)C)O1 , what is its reported pIC50?
[out] 6.00 to 7.00

[in] Given the compound CCn1c(-c2cccnc2[C@H](C)OC)c2c3cc(ccc31)-c1cccc(c1)C[C@H](NC(=O)[C@H](C(C)C)N1CO[C@@]3(CCN(C(=O)/C=C/CN(C)C)C3)C1=O)C(=O)N1CCC[C@H](N1)C(=O)OCC(C)(C)C2 (atropisomer, axis not shown) , what is its reported pIC50?
[out] 5.00 to 6.00

[in] Given the compound C=CC(=O)N1CC[C@H](C(=O)N(C2CC2)[C@H](C(=O)N[C@H]2Cc3cccc(c3)-c3ccc4c(c3)c(c(-c3cccnc3[C@H](C)OC)n4CC)CC(C)(C)COC(=O)[C@@H]3CCCN(N3)C2=O)C(C)C)C1 (atropisomer, axis not shown) , what is its reported pIC50?
[out] 5.00 to 6.00

[in] Given the compound C=CC(=O)N1CC[C@H](C(=O)N(C)[C@H](C(=O)N[C@H]2CN3CCC=C(C3)c3ccc4c(c3)c(c(-c3cccnc3[C@H](C)OC)n4CC)CC(C)(C)COC(=O)[C@@H]3CCCN(N3)C2=O)C(C)C)C1 (atropisomer, axis not shown) , what is its reported pIC50?
[out] 5.00 to 6.00

[in] Given the compound CCn1c(-c2cccnc2)c2c3cc(ccc31)-c1cccc(c1)C[C@H](NC(=O)[C@H](C(C)C)N(C)C(=O)[C@H]1CCN(C(=O)C#CCN3CCOCC3)C1)C(=O)N1CCC[C@H](N1)C(=O)OCC(C)(C)C2 , what is its reported pIC50?
[out] < 5.00

[in] Given the compound CCn1c(-c2cccnc2COC)c2c3cc(ccc31)-c1cc(O)cc(c1)C[C@H](NC(=O)[C@H](C(C)C)N(C)C(=O)[C@H]1C[C@@H](C)N(C(=O)C#CCN(C)C)C1)C(=O)N1CCC[C@H](N1)C(=O)OCC(C)(C)C2 , what is its reported pIC50?
[out] 5.00 to 6.00

[in] Given the compound C=CC(=O)N1CCO[C@H]2CN(C(=O)N(C)[C@H](C(=O)N[C@H]3Cc4nc(cs4)-c4ccc5c(c4)c(c(-c4cccnc4[C@H](C)OC)n5CC)CC(C)(C)COC(=O)[C@@H]4CCCN(N4)C3=O)C(C)C)C[C@@H]21 (atropisomer, axis not shown) , what is its reported pIC50?
[out] 6.00 to 7.00
